Ok so here's the combined literature set: pIC50 for UniProt P09874.
Sequence (P09874 whole entry): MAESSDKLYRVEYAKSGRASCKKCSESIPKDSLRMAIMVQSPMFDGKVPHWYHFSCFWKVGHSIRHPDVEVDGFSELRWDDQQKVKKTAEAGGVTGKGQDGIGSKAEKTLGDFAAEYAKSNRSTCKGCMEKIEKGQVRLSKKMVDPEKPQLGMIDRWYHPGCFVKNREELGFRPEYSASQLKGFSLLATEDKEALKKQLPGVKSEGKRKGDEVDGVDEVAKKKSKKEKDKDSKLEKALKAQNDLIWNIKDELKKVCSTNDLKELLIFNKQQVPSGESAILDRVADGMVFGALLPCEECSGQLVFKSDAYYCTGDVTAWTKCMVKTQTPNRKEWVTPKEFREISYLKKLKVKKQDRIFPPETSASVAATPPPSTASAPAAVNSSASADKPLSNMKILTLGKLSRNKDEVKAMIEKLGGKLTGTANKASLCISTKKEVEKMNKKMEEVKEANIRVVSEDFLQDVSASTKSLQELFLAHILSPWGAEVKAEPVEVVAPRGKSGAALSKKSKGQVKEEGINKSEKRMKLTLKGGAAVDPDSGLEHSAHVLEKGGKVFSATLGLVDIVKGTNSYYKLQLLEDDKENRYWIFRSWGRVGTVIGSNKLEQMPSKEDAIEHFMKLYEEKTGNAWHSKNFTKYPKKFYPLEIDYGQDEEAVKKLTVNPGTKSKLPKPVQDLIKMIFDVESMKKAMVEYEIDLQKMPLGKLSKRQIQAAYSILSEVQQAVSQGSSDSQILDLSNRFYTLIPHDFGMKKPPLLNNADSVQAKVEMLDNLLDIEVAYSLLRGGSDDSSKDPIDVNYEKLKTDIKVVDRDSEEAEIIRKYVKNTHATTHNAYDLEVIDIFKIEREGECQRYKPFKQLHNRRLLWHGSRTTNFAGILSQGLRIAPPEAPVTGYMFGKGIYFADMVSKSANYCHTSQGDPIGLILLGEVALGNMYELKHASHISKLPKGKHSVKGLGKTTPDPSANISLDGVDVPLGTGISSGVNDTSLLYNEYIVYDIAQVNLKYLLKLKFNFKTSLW
pIC50: −log10 of the molar value.
QUANTITY: pIC50

# COMPOUND, SUBJECT OF TEST, MEASURED VALUE
rows = [
    ("CNCc1ccc(-n2cc3cccc(C(N)=O)c3n2)cc1F", "UniProt P09874", 8.40),
    ("O=C(c1cc(Cc2n[nH]c(=O)c3ccccc23)cc(F)c1F)N1CCN(CC2CC2)CC1", "UniProt P09874", 8.01),
    ("O=C(c1cc(Cc2n[nH]c(=O)c3ccccc23)cc(F)c1F)N1CCN(C2CCCCC2)CC1", "UniProt P09874", 8.46),
    ("N#Cc1ccc(CC(=O)N2CCc3cccc4c3C2CNC4=O)cc1 (centres undefined)", "UniProt P09874", 8.05),
    ("CN1CCN(CCS(=O)(=O)Nc2ccc(/C=C3\\Oc4c(C(N)=O)cccc4C3=O)cc2)CC1", "UniProt P09874", 7.10),
]

[P] O=C(NCCN1CCN(c2ccncc2)CC1)c1ccc2[nH]c(=O)c3c(c2c1)CCSC3
[Q] O=C(c1cc(Cc2n[nH]c(=O)c3ccccc23)cc(F)c1F)N1CCN(c2ncc(C(F)(F)F)cn2)CC1
Lab notebook, comparison: P versus Q , higher pIC50 goes to which? Respond using the label that marks the chosen record.
P
(P: 7.36, Q: 7.15)
